Source of measurements: patent US10875875B2

Target: α4β1 (Homo sapiens, UniProt P05556+P13612)
Sequence (P13612 34-1032): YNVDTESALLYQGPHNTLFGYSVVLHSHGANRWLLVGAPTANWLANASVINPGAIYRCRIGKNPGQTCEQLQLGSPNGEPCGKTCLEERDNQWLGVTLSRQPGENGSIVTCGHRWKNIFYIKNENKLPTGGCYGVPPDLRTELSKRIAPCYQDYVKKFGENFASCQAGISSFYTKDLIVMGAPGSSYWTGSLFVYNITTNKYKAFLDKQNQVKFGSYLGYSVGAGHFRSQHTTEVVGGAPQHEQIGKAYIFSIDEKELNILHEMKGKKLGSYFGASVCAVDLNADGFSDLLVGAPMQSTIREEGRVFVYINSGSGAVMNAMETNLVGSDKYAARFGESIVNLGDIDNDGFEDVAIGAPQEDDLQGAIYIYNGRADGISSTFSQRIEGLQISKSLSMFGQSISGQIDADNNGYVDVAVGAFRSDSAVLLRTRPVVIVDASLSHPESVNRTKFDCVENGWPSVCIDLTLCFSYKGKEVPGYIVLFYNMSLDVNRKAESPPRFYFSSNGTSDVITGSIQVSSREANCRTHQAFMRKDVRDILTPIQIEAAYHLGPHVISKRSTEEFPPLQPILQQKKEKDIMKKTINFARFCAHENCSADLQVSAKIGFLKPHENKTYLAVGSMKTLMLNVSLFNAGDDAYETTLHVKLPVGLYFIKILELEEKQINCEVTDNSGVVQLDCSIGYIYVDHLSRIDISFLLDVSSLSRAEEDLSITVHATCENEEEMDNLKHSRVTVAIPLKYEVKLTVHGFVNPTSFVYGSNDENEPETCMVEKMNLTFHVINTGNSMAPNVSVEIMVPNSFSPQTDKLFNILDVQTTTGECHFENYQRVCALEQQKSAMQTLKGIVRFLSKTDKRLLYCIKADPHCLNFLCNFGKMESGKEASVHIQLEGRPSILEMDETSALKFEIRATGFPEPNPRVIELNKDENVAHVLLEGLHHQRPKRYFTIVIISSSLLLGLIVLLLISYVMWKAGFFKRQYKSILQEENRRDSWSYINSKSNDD
Sequence (P05556 21-798): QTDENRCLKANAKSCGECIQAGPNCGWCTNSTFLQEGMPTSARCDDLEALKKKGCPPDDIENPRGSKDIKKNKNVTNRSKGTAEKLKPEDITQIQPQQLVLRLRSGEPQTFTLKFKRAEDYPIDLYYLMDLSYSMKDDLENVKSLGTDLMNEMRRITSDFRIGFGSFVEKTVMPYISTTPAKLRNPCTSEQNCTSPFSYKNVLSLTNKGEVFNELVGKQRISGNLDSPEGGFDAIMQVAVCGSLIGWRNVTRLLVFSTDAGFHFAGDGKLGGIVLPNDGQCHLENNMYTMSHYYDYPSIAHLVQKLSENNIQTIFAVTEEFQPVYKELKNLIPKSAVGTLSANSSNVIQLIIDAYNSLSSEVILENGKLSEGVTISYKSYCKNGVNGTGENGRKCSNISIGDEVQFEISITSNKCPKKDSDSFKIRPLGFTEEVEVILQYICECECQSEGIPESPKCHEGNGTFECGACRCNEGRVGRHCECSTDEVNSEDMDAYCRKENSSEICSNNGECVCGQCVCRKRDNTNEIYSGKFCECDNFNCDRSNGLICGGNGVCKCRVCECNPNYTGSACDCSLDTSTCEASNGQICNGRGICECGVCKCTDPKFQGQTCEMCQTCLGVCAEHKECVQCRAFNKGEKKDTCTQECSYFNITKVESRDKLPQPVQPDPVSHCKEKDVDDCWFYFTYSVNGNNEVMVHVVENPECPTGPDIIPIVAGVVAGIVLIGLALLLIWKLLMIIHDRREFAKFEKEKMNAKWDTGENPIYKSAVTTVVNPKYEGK
Experiment: α4β1 integrin inhibition, IC50
Format: binding
Settings: read-out: α4β1 IC50
pIC50: −log10 of the molar value.
readout-type: pIC50

Here is how some molecules turned out for pIC50.
• Cn1ccc(O)c(NC(=O)N[C@@H](CC(=O)O)c2cc(-c3cccc(Cl)c3)cs2)c1=O [1-530] = > 7.70
• COc1cc(-c2ccc(F)cc2F)cc([C@H](CC(=O)O)NC(=O)Nc2c(O)cc(C)n(C)c2=O)c1 [1-581] = > 7.70
• COc1cccc(-c2ccc(F)c([C@H](CC(=O)O)NC(=O)Nc3c(O)cc(C)n(C)c3=O)c2)c1 [1-603] = > 7.70
• Cc1cccc(C)c1-c1cc([C@H](CC(=O)O)NC(=O)Nc2c(O)ccn(C)c2=O)ccc1F [1-561] = > 7.70
• CCn1cc(C)c(O)c(NC(=O)N[C@@H](CC(=O)O)c2cccc(-c3ccccc3)c2)c1=O [1-438] = > 6.70
• Cc1ccc([C@H](CC(=O)O)NC(=O)Nc2c(O)c(C)cn(C)c2=O)cc1-c1ccccc1 [1-448] = > 6.70
• Cn1ccc(O)c(NC(=O)N[C@@H](CC(=O)O)c2cncc(-c3ccccc3)c2)c1=O [1-641] = > 7.70
• Cc1cn(C)c(=O)c(NC(=O)N[C@@H](CC(=O)O)c2cc(-c3ccccc3)ccc2F)c1O [1-493] = > 6.70
• Cc1cn(C)c(=O)c(NC(=O)N[C@@H](CC(=O)O)c2cccc(-c3cccc(F)c3)c2)c1O [1-465] = > 7.70
• Cn1ccc(O)c(NC(=O)N[C@@H](CC(=O)O)c2cccc(-c3ccccc3)c2)c1=O [1-505] = > 7.70

Name the recorded pIC50 for Cc1ccc([C@H](CC(=O)O)NC(=O)Nc2c(O)ccn(C)c2=O)cc1-c1c(C)cccc1C [1-545] .
> 7.70

Also, Cc1cn(C)c(=O)c(NC(=O)N[C@@H](CC(=O)O)c2cccc(-n3c(C)ccc3C)c2)c1O [1-483] please.
> 7.70

Also, Cn1c(=O)c(NC(=O)N[C@@H](CC(=O)O)c2cccc(-c3ccc(F)cc3F)c2)c(O)c2sccc21 [1-515] please.
> 7.70

Also, Cn1ccc(O)c(NC(=O)N[C@@H](CC(=O)O)c2cccc(-c3cccc(Cl)c3)c2)c1=O [1-506] please.
> 7.70

Also, Cc1cc(-c2cccc(OC(F)(F)F)c2)cc([C@H](CC(=O)O)NC(=O)Nc2c(O)ccn(C)c2=O)c1 [1-572] please.
> 7.70

Also, Cc1cn(C)c(=O)c(NC(=O)N[C@@H](CC(=O)O)c2cccc(-c3ccccc3OC(F)(F)F)c2)c1O [1-467] please.
> 6.70

Also, Cc1cn(C)c(=O)c(NC(=O)N[C@@H](CC(=O)O)c2cccc(-c3cc(F)ccc3F)c2)c1O [1-447] please.
> 7.70

Also, Cn1ccc(O)c(NC(=O)N[C@@H](CC(=O)O)c2cccc(-c3ccc(F)cc3F)c2)c1=O [1-488] please.
> 7.70

Also, COc1cccc(-c2cccc([C@H](CC(=O)O)NC(=O)Nc3c(O)ccn(C)c3=O)c2)c1F [1-509] please.
> 7.70

Also, COc1cc(-c2cccc(OC(F)(F)F)c2)cc([C@H](CC(=O)O)NC(=O)Nc2c(O)ccn(C)c2=O)c1 [1-565] please.
> 7.70

Also, Cn1ccc(O)c(NC(=O)N[C@@H](CC(=O)O)c2cccc(-c3ccc(OC(F)(F)F)cc3)c2)c1=O [1-510] please.
> 7.70

---

Form field: IC50 (one value per entry).
Molecular target: α4β1 (Homo sapiens, UniProt P05556+P13612)
Experiment: α4β1 integrin inhibition, IC50
Assay type: binding
Conditions: read-out: α4β1 IC50

Here is how some compounds turned out for IC50.
- Cc1ccc(C)c(-c2cccc([C@H](CC(=O)O)NC(=O)Nc3c(O)c(C)cn(C)c3=O)c2)c1: < 20 nM
- Cc1cn(C)c(=O)c(NC(=O)N[C@@H](CC(=O)O)c2ccc(-c3ccccc3)cc2)c1O: < 200 nM
- Cc1ccc([C@H](CC(=O)O)NC(=O)Nc2c(O)ccn(C)c2=O)cc1-c1cccc(OC(F)(F)F)c1: < 20 nM

Name the recorded IC50 for COc1cccc(-c2cc(C)cc([C@H](CC(=O)O)NC(=O)Nc3c(O)ccn(C)c3=O)c2)c1 .
< 20 nM

Also, Cc1ccccc1-c1ccc([C@H](CC(=O)O)NC(=O)Nc2c(O)cc(C)n(C)c2=O)cc1 please.
< 20 nM

---

Form field: IC50 (one value per entry).
Target: α4β1 (Homo sapiens, UniProt P05556+P13612)
Assay: α4β1 integrin inhibition, IC50
Assay type: binding
Settings: read-out: α4β1 IC50

Here is how some compounds turned out for IC50.
* Cc1cc(O)c(NC(=O)N[C@@H](CC(=O)O)c2cc(-c3ccc(F)cc3F)cs2)c(=O)n1C | < 20 nM
* COc1cccc(-c2cc([C@H](CC(=O)O)NC(=O)Nc3c(O)cc(C)n(C)c3=O)ccc2C)c1 | < 20 nM
* COc1cc(-c2ccccc2)cc([C@H](CC(=O)O)NC(=O)Nc2c(O)ccn(C)c2=O)c1 | < 20 nM
* Cc1cccc(C)c1-c1cc(F)cc([C@H](CC(=O)O)NC(=O)Nc2c(O)cc(C)n(C)c2=O)c1 | < 20 nM
* Cc1cn(C)c(=O)c(NC(=O)NC(CC(=O)O)c2cccc(-c3ccc(Cl)cc3)c2)c1O (stereo not drawn) | < 200 nM

Name the recorded IC50 for Cc1cccc(-c2cccc([C@H](CC(=O)O)NC(=O)Nc3c(O)c(C)cn(C)c3=O)c2)c1C .
< 200 nM

Also, Cc1cn(C)c(=O)c(NC(=O)NC(CC(=O)O)c2cccc(-c3ccc(F)c(Cl)c3)c2)c1O (stereo not drawn) please.
< 200 nM

---

Target: α4β1 (Homo sapiens, UniProt P05556+P13612)
Assay: α4β1 integrin inhibition, IC50
Assay type: binding
Conditions: read-out: α4β1 IC50
readout-type: IC50

Here is how some compounds turned out for IC50.
- Cc1cc(-c2cccc([C@H](CC(=O)O)NC(=O)Nc3c(O)c(C)cn(C)c3=O)c2)ccc1F [1-497]: < 200 nM
- COc1cc([C@H](CC(=O)O)NC(=O)Nc2c(O)c(C)cn(C)c2=O)cc(-c2ccccc2)c1OC [1-475]: < 200 nM
- Cc1ccccc1-c1cccc([C@H](CC(=O)O)NC(=O)Nc2c(O)ccn(C)c2=O)c1 [1-598]: < 20 nM
- Cn1ccc(O)c(NC(=O)N[C@@H](CC(=O)O)c2cc(-c3cccc(OC(F)(F)F)c3)ccc2F)c1=O [1-594]: < 20 nM
- Cn1ccc(O)c(NC(=O)N[C@@H](CC(=O)O)c2cccc(-c3cc[nH]c3)c2)c1=O [1-544]: < 20 nM
- Cc1cccc(C)c1-c1ccc([C@H](CC(=O)O)NC(=O)Nc2c(O)cc(C)n(C)c2=O)cc1 [1-638]: < 200 nM
- COc1cccc(-c2cc([C@H](CC(=O)O)NC(=O)Nc3c(O)ccn(C)c3=O)ccc2F)c1 [1-547]: < 20 nM
- COc1cc(-c2ccc(F)cc2F)cc([C@H](CC(=O)O)NC(=O)Nc2c(O)ccn(C)c2=O)c1 [1-566]: < 20 nM
- Cc1ccc([C@H](CC(=O)O)NC(=O)Nc2c(O)ccn(C)c2=O)cc1-c1ccc(F)cc1F [1-541]: < 20 nM

Name the recorded IC50 for Cn1ccc(O)c(NC(=O)N[C@@H](CC(=O)O)c2cccc(-c3ccccn3)c2)c1=O [1-639] .
< 20 nM

---

Biological target: α4β1 (Homo sapiens, UniProt P05556+P13612)
Assay: α4β1 integrin inhibition, IC50
Assay type: binding
Conditions: read-out: α4β1 IC50
pIC50: −log10 of the molar value.
readout-type: pIC50

Name the recorded pIC50 for CCn1ccc(O)c(NC(=O)N[C@@H](CC(=O)O)c2cccc(-c3ccc(F)cc3F)c2)c1=O [1-531] .
> 7.70

Also, CCn1cc(C)c(O)c(NC(=O)N[C@@H](CC(=O)O)c2cccc(-c3ccc(C)cc3)c2)c1=O [1-444] please.
> 6.70

Also, Cc1cc(O)c(NC(=O)N[C@@H](CC(=O)O)c2cc(F)cc(-c3cccc(OC(F)(F)F)c3)c2)c(=O)n1C [1-606] please.
> 7.70

---

Target: α4β1 (Homo sapiens, UniProt P05556+P13612)
Assay: α4β1 integrin inhibition, IC50
Format: binding
Details: read-out: α4β1 IC50
pIC50: −log10 of the molar value.
readout-type: pIC50

Name the recorded pIC50 for COc1cccc(-c2cc(C)cc([C@H](CC(=O)O)NC(=O)Nc3c(O)cc(C)n(C)c3=O)c2)c1 .
> 7.70

Also, Cc1cccc(-c2cccc([C@H](CC(=O)O)NC(=O)Nc3c(O)c(C)cn(C)c3=O)c2)c1 please.
> 6.70
